- method_summary: In vitro hydrolysis of propofol esters to propofol in human saliva
- Format: in vitro ADME
- protocol_conditions: room temperature, approximate
assay_metric: half-life

QUERY: Given the compound CC(C)c1cccc(C(C)C)c1OC(=O)CCC(=O)O [propofol hemisuccinate, 2,6-diisopropylphenyl hydrogen succinate] , what is its reported half-life?
RESULT: ~96 h

====

- method_summary: In vitro hydrolysis of propofol esters to propofol in water (PBS buffer pH 7.4)
- Format: in vitro ADME
- protocol_conditions: room temperature, approximate
assay_metric: half-life

QUERY: Given the molecule CC(C)c1cccc(C(C)C)c1OC(=O)CCC(=O)O [propofol hemisuccinate, 2,6-diisopropylphenyl hydrogen succinate] , what is its reported half-life?
RESULT: ~14 days

====

- method_summary: In vitro hydrolysis of propofol esters to propofol in human plasma
- Assay type: in vitro ADME
- protocol_conditions: room temperature, approximate
assay_metric: half-life

QUERY: Given the compound CC(C)c1cccc(C(C)C)c1OC(=O)CCC(=O)O [propofol hemisuccinate, 2,6-diisopropylphenyl hydrogen succinate] , what is its reported half-life?
RESULT: ~72 h

====

- method_summary: In vitro hydrolysis of propofol esters to propofol in human whole blood
- Assay type: in vitro ADME
- protocol_conditions: room temperature, approximate
assay_metric: half-life

QUERY: Given the compound CC(C)c1cccc(C(C)C)c1OC(=O)CCC(=O)O [propofol hemisuccinate, 2,6-diisopropylphenyl hydrogen succinate] , what is its reported half-life?
RESULT: ~48 h

====

- method_summary: In vitro hydrolysis of propofol esters to propofol in rat whole blood
- Assay type: in vitro ADME
- protocol_conditions: room temperature, approximate
assay_metric: half-life

QUERY: Given the molecule CC(C)c1cccc(C(C)C)c1OC(=O)CCC(=O)O [propofol hemisuccinate, 2,6-diisopropylphenyl hydrogen succinate] , what is its reported half-life?
RESULT: ~2 h
